Tested on: HCT-116 colon
Assay: NCI tumour cell line growth inhibition, 48 h
property: TGI

// known answers, use as guide
[[record]]
compound = "COc1c2ccoc2cc2oc(=O)ccc12"
testedtarget = "HCT-116 colon"
observedresult = "> 100 µM"

[[record]]
compound = "CCn1ncc2c1nc(-c1ccccc1)c[n+]2[O-]"
testedtarget = "HCT-116 colon"
observedresult = "> 100 µM"

[[record]]
compound = "O=C1/C(=C\\c2ccc(F)cc2)CN(C(=O)c2ccc([N+](=O)[O-])cc2)C/C1=C\\c1ccc(F)cc1"
testedtarget = "HCT-116 colon"
observedresult = "0.448 µM"

[[record]]
compound = "COC(=O)C(=O)C(C(=O)C1=NS(=O)(=O)c2cc(S(N)(=O)=O)c(Cl)cc2N1)c1nc2ccc(C(=O)c3ccccc3)cc2[nH]c1=O (centres undefined)"
testedtarget = "HCT-116 colon"
observedresult = "> 100 µM"

[[record]]
compound = "c1ccc(CSC2(SCc3ccccc3)CCCC2)cc1"
testedtarget = "HCT-116 colon"
observedresult = "> 10 µM"


Okay, here is my list. What is TGI for each of these?
1. N.N.N.N.O=NN1CCCCCC1(P(=O)([O-])[O-])P(=O)([O-])[O-].[Pt+4].[Pt+4]
2. C=CCOc1ccc(/C(N=Nc2ccc(C)cc2)=N/NC(=O)c2ccccc2)cc1OC
3. COc1cc(OC)c2ssc3c(OC)cc(OC)c4ssc1c2-c43
4. COC(=O)[C@@]1(Cc2ccccc2)[C@H]2c3cc(C(=O)N4CCCC4)n(Cc4ccc(OC)c(OC)c4)c3C[C@H]2CN1C(=O)c1ccccc1

Marked response:
1. > 100 µM
2. 82.6 µM
3. > 100 µM
4. 13.8 µM

====

Tested on: NCI/ADR-RES ovarian
Test: NCI tumour cell line growth inhibition, 48 h
property: GI50

// known answers, use as guide
[[record]]
molecule = "C/C1=C/C(=O)O[C@@H]2C[C@@H](CC[C@H](C)/C=C\\C=C\\CC1)O[C@@](O)([C@@H]1CSC(=O)N1CO)C2"
observedresult = "1.2 µM"

[[record]]
molecule = "COC(=O)[C@H]1C(=O)[C@@]2(C)[C@H]([C@H](OC(=O)c3ccccc3)[C@]3(O)C[C@H](OC(=O)[C@H](O)[C@@H](NC(=O)c4ccc(F)cc4)c4ccccc4)C(C)=C1C3(C)C)[C@]1(OC(C)=O)CO[C@@H]1C[C@@H]2O"
observedresult = "4.61 µM"

[[record]]
molecule = "C[C@@H](N)C1CCC(C(=O)Nc2ccncc2)CC1 (stereo partly drawn)"
observedresult = "> 100 µM"

[[record]]
molecule = "Cc1cc(C(=O)Nc2nc3cccc(Cl)c3n2[C@@H]2CCCCN(C(=O)/C=C/CN(C)C)C2)ccn1"
observedresult = "5.37 µM"

[[record]]
molecule = "CCOC(CCCNCCCn1c2c(c3cc(OC)c(OC)cc3c1=O)C(=O)c1cc3c(cc1-2)OCO3)OCC"
observedresult = "6.5 µM"


Okay, here is my list. What is GI50 for each of these?
1. CCCCCCCCCCCCNC(=O)[C@H]1CSC(c2cc3ccccc3s2)N1 (stereo partly drawn)
2. Cc1nc2ccccn2c1NC(=O)NNC(=S)Nc1ccc(Br)cc1
3. COc1c2c3ccccc3nc-2n(C)c2ccccc12

Marked response:
["1.66 µM", "24.5 µM", "7.33 µM"]

====

Tested on: BT-549 breast
Test: NCI tumour cell line growth inhibition, 48 h
Please go through the items and note down their TGI.
Answers are plain numbers, in µM.

// known answers, use as guide
[[record]]
recordsmiles = "C=CCOc1ccc(/C(N=Nc2ccc(C)cc2)=N/NC(=O)c2ccccc2)cc1OC"
observedresult = 47.1

[[record]]
recordsmiles = "C=CC(=O)N1C/C(=C\\c2ccccc2)C(=O)/C(=C/c2ccccc2)C1"
observedresult = 4.24

[[record]]
recordsmiles = "Cc1ncc(C(=O)Nc2ccc(CN3CCN(C)CC3)c(C(F)(F)F)c2)cc1C#Cc1cnc(N)c2cnccc12"
observedresult = 10.7


We next turn to a different compound, shown below.
Exam item: Annotate the compound Cc1nnc2sc(Cl)nn12 with its measured TGI.
Marked response: 46.7

====

System: NCI-H23 lung
Assay: NCI tumour cell line growth inhibition, 48 h; in the data active means GI50 below about 0.43 µM; inactive means the rest
# valid calls are Yes (active), No (inactive); nothing else

Some solved entries appear below for comparison.
[[record]]
compound = "NC(=O)C1c2ccccc2C=Cc2ccccc21"
testedtarget = "NCI-H23 lung"
classification = "No"

[[record]]
compound = "COc1cc2c(F)nccc2cc1C(=O)N[C@@H](c1ccc(F)c(Cl)c1)[C@@H]1C[C@@H](O)CN1"
testedtarget = "NCI-H23 lung"
classification = "No"

[[record]]
compound = "O=Cc1ccc(-c2ccc(-c3nc4ccccc4[nH]3)cc2)s1"
testedtarget = "NCI-H23 lung"
classification = "No"

[[record]]
compound = "CCN1C(=O)N(CC)C2C1NN=c1s/c(=C\\c3ccccc3F)c(=O)n12 (stereo unspecified)"
testedtarget = "NCI-H23 lung"
classification = "Yes"


Exam item: Outcome logged for O=C(N/N=C/c1ccccc1O)C(O)(c1ccccc1)c1ccccc1 in this assay:
Marked response: No

Exam item: Outcome logged for COc1ccccc1-c1cc(/C=C2\C(=O)Nc3ncc(Br)cc32)cc(Br)c1O in this assay:
Marked response: No

Exam item: Outcome logged for C/C1=C/C(=O)O[C@@H]2C[C@@H](CC[C@H](C)/C=C\C=C\CC1)O[C@@](O)([C@@H]1CSC(=O)N1CO)C2 in this assay:
Marked response: Yes

====

Test system: A498 renal
Assay: NCI tumour cell line growth inhibition, 48 h
Decide using TGI: a value greater than or equal to 30 µM is 1 (yes), a smaller one is 0 (no).

[[record]]
molecule = "CCN1C(=O)N(CC)C2C1NN=c1s/c(=C\\c3ccccc3F)c(=O)n12 (stereo unspecified)"
classification = "0 (no)"

[[record]]
molecule = "C[C@@H](N)C1CCC(C(=O)Nc2ccncc2)CC1 (stereo partly specified)"
classification = "1 (yes)"

[[record]]
molecule = "Cc1nc2c(O)cc3c4c(=O)n(C)c(=O)n(C)c4n(Cc4ccccc4)c3c2nc1C"
classification = "1 (yes)"

[[record]]
molecule = "CCN1CCN(c2nc3ccccc3nc2C(=O)c2ccc(OC)cc2)CC1"
classification = "1 (yes)"

[[record]]
molecule = "Nc1ccc(Oc2ccc(C3(c4ccc(Oc5ccc(N)cc5)cc4)C4CC5C6CC7CC5C3C(C7)C6C4)cc2)cc1"
classification = "0 (no)"


Exam item: hey, is TGI for this one >= 30 µM? CCN1C(=S)n2cccc2C1CC(=O)c1ccc(Cl)cc1 (stereo unspecified)
Marked response: 1 (yes)

Exam item: hey, is TGI for this one >= 30 µM? O=C(/C=C/c1ccc(O)c(O)c1)OCc1ccccc1
Marked response: 1 (yes)

Exam item: hey, is TGI for this one >= 30 µM? O=C1c2sc(-c3ccc(F)cc3)cc2-n2cccc21
Marked response: 1 (yes)

Exam item: hey, is TGI for this one >= 30 µM? CC1=C(C(=O)Nc2ccccc2)C(c2ccc([N+](=O)[O-])cc2)C(C(=O)Nc2ccccc2)=C(C)N1
Marked response: 1 (yes)

====

Test system: CAKI-1 renal
Assay: NCI tumour cell line growth inhibition, 48 h
Please go through the items and note down their TGI.

// known answers, use as guide
[[record]]
recordsmiles = "CC1(C)O[C@H]([C@H](O)c2nnc3ccc(Cl)nn23)[C@@H]([C@H]2COC(C)(C)O2)O1"
property = "TGI"
observedresult = "> 100 µM"

[[record]]
recordsmiles = "O=C(Nc1ccc(Cl)cc1)NS(=O)(=O)c1coc2ccccc2c1=O"
property = "TGI"
observedresult = "> 10 µM"

[[record]]
recordsmiles = "CN(C)CCCNC(=O)c1cc(NC(=O)c2cc(NS(=O)(=O)c3ccc4c(c3)C(=O)c3ccccc3C4=O)cn2C)cn1C"
property = "TGI"
observedresult = "> 100 µM"

[[record]]
recordsmiles = "Fc1ccc(-c2nn3c(CNc4ccccc4)nnc3s2)cc1"
property = "TGI"
observedresult = "49.2 µM"

[[record]]
recordsmiles = "C1=Nc2ccc(cc2)N=Cc2ccccc2OCc2cccc(n2)COc2ccccc21"
property = "TGI"
observedresult = "> 100 µM"


We next turn to a different molecule, shown below.
Exam item: Annotate the molecule C/C(=C/c1ccccc1)CN(C(=O)/C=C\Sc1ccccc1)C(C)(C)C with its measured TGI.
Marked response: > 100 µM

====

Tested on: IGROV1 ovarian
Test: NCI tumour cell line growth inhibition, 48 h; in the data active = GI50 below about 0.43 µM; inactive = the rest
# valid calls are YES (active), NO (inactive); nothing else

Some solved entries appear below for comparison.
[[record]]
recordsmiles = "COc1cc(-c2nc(NC(C)=O)sc2-c2ccnc(NCCNS(=O)(=O)c3ccccc3)n2)ccc1Cl"
classification = "NO"

[[record]]
recordsmiles = "O=C(NCCc1ccccc1)C(c1ccccc1)(c1ccccc1)c1ccccc1"
classification = "NO"

[[record]]
recordsmiles = "O=Cc1ccc(-c2ccc(-c3nc4ccccc4[nH]3)cc2)s1"
classification = "NO"

[[record]]
recordsmiles = "Cc1ccc(S(=O)(=O)Oc2ccc([N+](=O)[O-])cc2[N+](=O)[O-])cc1"
classification = "NO"


Exam item: Outcome logged for Cc1ncc(C(=O)Nc2ccc(CN3CCN(C)CC3)c(C(F)(F)F)c2)cc1C#Cc1cnc(N)c2cnccc12 in this assay:
Marked response: YES
